Every entry's value here was drawn from paper PMC8230956.

# tested-system: Hsc70 + DnaJB1 + Apg2 (Homo sapiens, UniProt P11142+P34932)
# Construct: His6-SUMO (N, cleaved yes); made in house; host or cells: E. coli BL21 Rosetta
# Sequence (P11142 whole entry): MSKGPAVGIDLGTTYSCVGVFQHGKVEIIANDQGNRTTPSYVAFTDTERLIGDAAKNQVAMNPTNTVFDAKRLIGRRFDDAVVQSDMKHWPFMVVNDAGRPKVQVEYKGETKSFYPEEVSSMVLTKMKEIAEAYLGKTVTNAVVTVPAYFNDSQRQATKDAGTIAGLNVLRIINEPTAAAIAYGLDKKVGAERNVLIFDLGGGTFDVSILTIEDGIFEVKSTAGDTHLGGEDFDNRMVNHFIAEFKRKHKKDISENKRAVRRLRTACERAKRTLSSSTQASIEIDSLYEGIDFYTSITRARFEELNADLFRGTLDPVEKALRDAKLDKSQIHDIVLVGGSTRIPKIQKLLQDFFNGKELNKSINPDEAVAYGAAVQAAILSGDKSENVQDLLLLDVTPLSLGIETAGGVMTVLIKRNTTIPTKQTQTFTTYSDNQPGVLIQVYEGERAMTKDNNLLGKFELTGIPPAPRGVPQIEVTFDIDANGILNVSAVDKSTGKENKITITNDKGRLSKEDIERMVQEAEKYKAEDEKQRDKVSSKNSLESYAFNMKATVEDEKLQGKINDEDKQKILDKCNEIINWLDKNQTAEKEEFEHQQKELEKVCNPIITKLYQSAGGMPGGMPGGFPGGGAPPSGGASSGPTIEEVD
# Sequence (P34932 whole entry): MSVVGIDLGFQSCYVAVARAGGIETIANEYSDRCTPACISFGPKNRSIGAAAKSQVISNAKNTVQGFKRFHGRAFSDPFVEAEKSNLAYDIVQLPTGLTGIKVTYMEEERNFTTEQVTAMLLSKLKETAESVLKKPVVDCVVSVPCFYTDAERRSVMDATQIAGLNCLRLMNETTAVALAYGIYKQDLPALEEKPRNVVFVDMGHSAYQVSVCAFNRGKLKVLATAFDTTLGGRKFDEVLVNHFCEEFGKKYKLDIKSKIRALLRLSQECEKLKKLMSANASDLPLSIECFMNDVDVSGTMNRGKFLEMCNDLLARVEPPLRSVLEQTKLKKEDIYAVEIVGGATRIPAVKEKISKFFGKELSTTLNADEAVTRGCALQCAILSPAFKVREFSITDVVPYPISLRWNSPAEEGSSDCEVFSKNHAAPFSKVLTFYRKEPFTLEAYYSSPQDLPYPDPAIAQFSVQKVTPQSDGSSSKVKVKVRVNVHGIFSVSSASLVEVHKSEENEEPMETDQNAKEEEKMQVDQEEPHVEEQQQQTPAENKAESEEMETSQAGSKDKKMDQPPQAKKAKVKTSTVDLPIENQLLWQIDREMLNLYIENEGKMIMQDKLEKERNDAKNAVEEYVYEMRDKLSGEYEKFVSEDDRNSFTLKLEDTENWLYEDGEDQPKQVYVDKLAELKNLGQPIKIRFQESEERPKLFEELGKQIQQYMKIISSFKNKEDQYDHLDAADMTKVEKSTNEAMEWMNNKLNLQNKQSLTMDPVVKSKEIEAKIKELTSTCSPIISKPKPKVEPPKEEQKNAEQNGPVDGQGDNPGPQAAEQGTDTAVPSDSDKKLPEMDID
# test-name: Reactivation of G6PDH aggregates by the ternary chaperone mixture
# Format: biochemical
assay-readout: IC50 (µM)
Provide the reading as a plain figure in µM.

Please supply the value of reported IC50 for the item `CCc1oc2ccccc2c1C(=O)c1cc(Br)c(O)c(Br)c1`
17.6

* * *

# tested-system: Hsc70 + DnaJB1 + Apg2 (Homo sapiens, UniProt P11142+P34932)
# Construct: His6-SUMO (N, cleaved yes); made in house; host or cells: E. coli BL21 Rosetta
# test-name: Reactivation of G6PDH aggregates by the ternary chaperone mixture
# Format: biochemical
# conditions: 2 µM Hsc70, 0.5 µM DnaJB1, 0.4 µM Apg2, 0.4 µM G6PDH aggregates; means ± SD of three experiments; read-out: IC50 G6PDH Reactivation Hsc70 + DnaJB1 + Apg2
# maps each entry to its IC50
Note: unit µM is implicit; provide only the numeric part.

Look up and report measured IC50 for this entry: `Cl.O[C@@H](c1cc(C(F)(F)F)nc2c(C(F)(F)F)cccc12)[C@H]1CCCCN1`
97.3

New cases:
Fill in IC50 for record `[H]/N=C(\N/C(=N/[H])NCCCCCCNC(=N)NC(=N)Nc1ccc(Cl)cc1)Nc1ccc(Cl)cc1`
14.5

Output IC50 of CC=C(C)C(=O)OC1C(OC(C)=O)C2(CO)C(O)CC3(C)C(=CCC4C5(C)CCC(OC6OC(C(=O)O)C(OC7OC(CO)C(O)C(O)C7O)C(O)C6OC6OC(CO)C(O)C(O)C6O)C(C)(CO)C5CCC43C)C2CC1(C)C (stereo not drawn)
47

* * *

# System: MeWo cells
# test-name: Cell viability assay (XTT or Presto Blue), MeWo
# Type: cell-based, human
# conditions: increasing concentrations, different incubation times
assay-readout: Effect on cell viability (toxicity), MeWo

State, in one line, measured Effect on cell viability (toxicity), MeWo of `[H]/N=C(\N/C(=N/[H])NCCCCCCNC(=N)NC(=N)Nc1ccc(Cl)cc1)Nc1ccc(Cl)cc1`
Cell viability decreased

# return recorded Effect on cell viability (toxicity), MeWo for input `O=C(O)Cc1cc(I)c(Oc2ccc(O)c(I)c2)c(I)c1`
no toxicity was observed

Determine from records and report Effect on cell viability (toxicity), MeWo for `Cl.O[C@@H](c1cc(C(F)(F)F)nc2c(C(F)(F)F)cccc12)[C@H]1CCCCN1`
Cell viability decreased

Provide only the value of recorded Effect on cell viability (toxicity), MeWo for `CCc1oc2ccccc2c1C(=O)c1cc(Br)c(O)c(Br)c1`
no toxicity was observed

* * *

# tested-system: Hsc70 + DnaJB1 (Homo sapiens, UniProt P11142)
# Construct: His6-SUMO (N, cleaved yes)
# Sequence (P11142 whole entry): as the sequence (P11142 whole entry) above
# test-name: Reactivation of G6PDH aggregates by the binary chaperone mixture
# conditions: 2 µM Hsc70, 0.5 µM DnaJB1, 0.4 µM G6PDH aggregates; means ± SD of three experiments
# Experimental: Subsequently, aggregates were stabilized for 30 min at 30 °C. The properties of these aggregates have been previously reported, and typically show a hydrodynamic radius of approximately 500–600 nm. […] Reactivation was monitored at 30 °C for 180 min. […] NADPH formation was measured recording the absorbance increase at 340 nm in a Synergy HTX plate reader (BioTek, Winooski, VT, USA) in transparent 96-well plates with flat bottom (Sarstedt, Newton, NC, USA) for 5 min. […]
assay-readout: pIC50
pIC50 is a log-scale quantity: -log10 of the concentration expressed in molar.

As a guide, the following entries are already answered.
Read the entry CCc1oc2ccccc2c1C(=O)c1cc(Br)c(O)c(Br)c1 [Compound 3] and write its reported pIC50.
5.00

Return value of pIC50 for input Cl.O[C@@H](c1cc(C(F)(F)F)nc2c(C(F)(F)F)cccc12)[C@H]1CCCCN1 [Compound 5] , no commentary.
3.97

Return reported pIC50. Input compound: CC=C(C)C(=O)OC1C(OC(C)=O)C2(CO)C(O)CC3(C)C(=CCC4C5(C)CCC(OC6OC(C(=O)O)C(OC7OC(CO)C(O)C(O)C7O)C(O)C6OC6OC(CO)C(O)C(O)C6O)C(C)(CO)C5CCC43C)C2CC1(C)C (stereo not shown) [Compound 4]
4.43

Here's the next entry for you.
# return recorded pIC50 for entry [H]/N=C(\N/C(=N/[H])NCCCCCCNC(=N)NC(=N)Nc1ccc(Cl)cc1)Nc1ccc(Cl)cc1 [Compound 1]
4.92
